# assay text: compound effects on lung adenocarcinoma cell viability – A549, calcein-AM fluorescence, 48 h, basal, profiling panel (AID 1162); further: test concentration not given here
# measurement setup: higher = more signal
Binary call on z-score: 1.0 from -0.1 upward, 0.0 beneath that.

Qu. Is z-score at least -0.1? Consider C=CCN1C(=O)[C@]2(Cc3ccccc3)N=C(c3ccc(OCCCO)cc3)O[C@@H]2c2ccccc21
Ans. 1.0

Qu. Is z-score at least -0.1? Consider O=C1NC(=O)C2C1C=CC(C(O)c1ccc(-c3ccccc3)s1)N2Nc1ccc(Cl)cc1Cl (stereo not drawn)
Ans. 0.0

Qu. Is z-score at least -0.1? Consider Cc1ccc([C@H]2C(C(=O)O)=CCN2S(=O)(=O)c2ccc(C)cc2)cc1
Ans. 0.0

Qu. Is z-score at least -0.1? Consider O=C1[C@H]2C=C(I)[C@H](C[C@@H]2OCCCCO)[C@@]12CO2
Ans. 0.0

Qu. Is z-score at least -0.1? Consider O=C(CS)NCCCCCNC(=O)[C@H]1C[C@H]2C(=O)NCC(=O)N2[C@H]1c1ccc(O)cc1
Ans. 1.0

Further cases:
Qu. Is z-score at least -0.1? Consider COc1ccc(C(=O)Nc2cccc(CN3C(=O)[C@]4(O[C@H](CCn5cc(CCO)nn5)[C@@H]([Si](C)(C)c5ccc(OC)cc5)[C@@H]4C)c4ccccc43)c2)cc1
Ans. 0.0

Qu. Is z-score at least -0.1? Consider CCOC(=O)C1=C[C@@H](C(C)C)N(S(=O)(=O)c2ccc(C)cc2)[C@H]1c1ccccc1F
Ans. 0.0

* * *

# system: Focal adhesion kinase 1 (Homo sapiens) (UniProt Q05397)
# Sequence (Q05397 whole entry, looked up): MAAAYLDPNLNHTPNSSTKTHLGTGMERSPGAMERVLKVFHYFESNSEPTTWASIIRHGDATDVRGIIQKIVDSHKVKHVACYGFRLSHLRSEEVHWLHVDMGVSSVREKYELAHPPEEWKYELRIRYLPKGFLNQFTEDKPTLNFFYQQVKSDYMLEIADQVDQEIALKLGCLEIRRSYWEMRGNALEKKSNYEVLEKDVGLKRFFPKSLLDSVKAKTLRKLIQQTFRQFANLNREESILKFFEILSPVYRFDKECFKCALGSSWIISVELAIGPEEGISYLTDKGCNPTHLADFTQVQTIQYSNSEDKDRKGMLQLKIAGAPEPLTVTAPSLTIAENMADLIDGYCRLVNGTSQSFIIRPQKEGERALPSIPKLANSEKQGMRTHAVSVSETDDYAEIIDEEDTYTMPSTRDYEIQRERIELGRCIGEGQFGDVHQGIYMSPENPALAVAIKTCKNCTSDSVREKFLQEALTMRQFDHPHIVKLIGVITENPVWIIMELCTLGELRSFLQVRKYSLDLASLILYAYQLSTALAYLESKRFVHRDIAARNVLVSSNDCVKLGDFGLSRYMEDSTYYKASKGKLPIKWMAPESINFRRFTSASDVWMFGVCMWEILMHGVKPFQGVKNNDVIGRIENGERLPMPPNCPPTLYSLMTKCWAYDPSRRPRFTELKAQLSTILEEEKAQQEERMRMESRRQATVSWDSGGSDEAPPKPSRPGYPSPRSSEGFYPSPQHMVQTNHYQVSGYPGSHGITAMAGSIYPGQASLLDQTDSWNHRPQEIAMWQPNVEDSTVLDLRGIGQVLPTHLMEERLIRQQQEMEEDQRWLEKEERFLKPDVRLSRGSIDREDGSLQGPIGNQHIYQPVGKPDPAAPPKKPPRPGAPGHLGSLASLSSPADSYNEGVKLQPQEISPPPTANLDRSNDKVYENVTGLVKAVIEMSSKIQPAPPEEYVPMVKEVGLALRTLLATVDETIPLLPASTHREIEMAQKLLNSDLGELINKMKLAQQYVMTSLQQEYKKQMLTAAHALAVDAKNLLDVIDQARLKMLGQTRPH
# assay text: PTK2 protein binding on printed compound slides – biochemical, small-molecule microarray, 635/667 nm fluorescence, BSA, DTT, primary screen (AID 1130);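 further: composite of spot emission at 667 nm and signal to noise over triplicate slides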
# measurement setup: 635 nm fluorescence, higher = more signal
Binary call on composite z-score: T from -0.07 upward, F beneath that.

Qu. Is composite z-score at least -0.07? Consider CC(C)N1CC=CC23O[C@@H]4C=CCOC(=O)[C@@H]4[C@H]2C(=O)N(CCCCCO)[C@@H]3C1=O (some centres undefined)
Ans. T

Okay, now this compound:
Qu. Is composite z-score at least -0.07? Consider C=CC1c2cc(O)c(OC)cc2CCN1Cc1cccc(OC(F)(F)F)c1 (centres undefined)
Ans. T

* * *

# system: Homeobox protein Hox-A13 (Mus musculus) (UniProt Q62424)
# Sequence (Q62424 whole entry, looked up): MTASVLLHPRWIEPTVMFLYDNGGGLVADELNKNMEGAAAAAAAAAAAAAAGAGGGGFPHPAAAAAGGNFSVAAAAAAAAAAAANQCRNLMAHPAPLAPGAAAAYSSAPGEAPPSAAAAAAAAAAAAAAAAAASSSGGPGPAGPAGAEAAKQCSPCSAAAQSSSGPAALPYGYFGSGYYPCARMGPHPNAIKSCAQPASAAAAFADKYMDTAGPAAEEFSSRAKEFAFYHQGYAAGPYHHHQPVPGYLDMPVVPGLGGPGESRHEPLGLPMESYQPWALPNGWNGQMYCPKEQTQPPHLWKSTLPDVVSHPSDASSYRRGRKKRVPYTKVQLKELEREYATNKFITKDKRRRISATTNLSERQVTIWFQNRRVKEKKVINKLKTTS
# assay text: disruptors of Hoxa13 oligonucleotide interaction – biochemical, fluorescence polarization, labeled oligonucleotide, primary screen (AID 1185)
# measurement setup: Hoxa13:DNA binding, 15 min, higher = more signal, called active from +8 up or from −8 down
measurement name: z-score
Reply: number alone, nothing else.

These recorded examples may help you get a feel for the data.
Qu. Observed z-score on Homeobox protein Hox-A13 (Mus musculus) (UniProt Q62424) for COc1ccc(C(O)C2C=CC3C(=O)N(C)C(=O)C3N2NC(=O)OC(C)(C)C)c2ccccc12 (centres undefined) , please.
Ans. -4.22

Qu. Observed z-score on Homeobox protein Hox-A13 (Mus musculus) (UniProt Q62424) for O=C1[C@H]2C=C(I)[C@H](C[C@@H]2OCCCCO)[C@@]12CO2 , please.
Ans. -1.94

Qu. Observed z-score on Homeobox protein Hox-A13 (Mus musculus) (UniProt Q62424) for O=C1OCCC=C[C@H]2OC34C=CCN(CCN5CCOCC5)C(=O)[C@H]3N(CCCCCO)C(=O)[C@@H]4C12 (some centres undefined) , please.
Ans. -5.57

Qu. Observed z-score on Homeobox protein Hox-A13 (Mus musculus) (UniProt Q62424) for C=C(C(=O)CC[C@H](OC(C)=O)c1ccccc1OCCO)C(C)C , please.
Ans. -0.163

Qu. Observed z-score on Homeobox protein Hox-A13 (Mus musculus) (UniProt Q62424) for COC(=O)C(CC#Cc1ccc2c(c1)[C@]1(C(=O)N2)[C@H](c2ccc(O)cc2)N2[C@H](c3ccccc3)[C@H](c3ccccc3)OC(=O)[C@H]2[C@@H]1C(=O)N1CCN(c2ncccn2)CC1)C(=O)OC , please.
Ans. -1.65

Qu. Observed z-score on Homeobox protein Hox-A13 (Mus musculus) (UniProt Q62424) for COCCCNC(=O)[C@@]1(CCS(=O)(=O)c2ccccc2)N=C(c2ccc(OCCCO)cc2)O[C@H]1c1ccccc1N=[N+]=[N-] , please.
Ans. -3.94

Qu. Observed z-score on Homeobox protein Hox-A13 (Mus musculus) (UniProt Q62424) for COC(=O)c1c2oc(c1C(=O)OC)C(=O)NC1(CCCCC1)c1cn(nn1)C[C@H](Cc1ccccc1)NC(=O)N[C@H](CO)CC2 , please.
Ans. -4.41

Qu. Observed z-score on Homeobox protein Hox-A13 (Mus musculus) (UniProt Q62424) for O=C1C2C=CC(C(O)c3cc(C(F)(F)F)cc(C(F)(F)F)c3)N(Nc3ccccc3)C2C(=O)N1c1ccccc1 (centres undefined) , please.
Ans. -2.82

# input for lookup
Qu. Observed z-score on Homeobox protein Hox-A13 (Mus musculus) (UniProt Q62424) for CCOC(=O)C[C@H]1[C@H](OC(=O)c2ccc(C(=O)c3ccccc3)cc2)[C@@H](NC(=O)c2ccccc2)c2cc(OCCCO)ccc2N1C(=O)c1ccccc1 , please.
Ans. -1.19
